B1: CPEB3 Ribozyme (parent)
chain: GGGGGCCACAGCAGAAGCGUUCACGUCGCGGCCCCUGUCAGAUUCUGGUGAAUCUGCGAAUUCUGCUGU

Variants of: B1
Test: self-cleavage, relative activity (ratio to wild type); higher = more cleavage; co-transcriptional
PROPERTY_NAME: self-cleavage

>>> print(df.to_string())
    alteration  property_name  recorded_measurement
 0   A15C C32A  self-cleavage                 0.302
 1   U44A A59G  self-cleavage                 0.924
 2   G14A A16U  self-cleavage                 0.353
 3    G5U G48U  self-cleavage                 0.332
 4   C18A U55G  self-cleavage                 0.113
 5   C39U A60C  self-cleavage                 0.341
 6   A52U C57U  self-cleavage                 0.309
 7   C39U U67G  self-cleavage                 0.923
 8   U20C G50U  self-cleavage                 0.245
 9   C35A G56C  self-cleavage                 0.253
10   A13C G68C  self-cleavage                 0.917
11   C22G U55C  self-cleavage                 0.198
12    G2A C35A  self-cleavage                0.0641
13   G37U U49A  self-cleavage                 0.258
14   U20A A51U  self-cleavage                 0.153
15   U20C U36A  self-cleavage                 0.125
16    G5A G58C  self-cleavage                 0.758
17    G5A U61A  self-cleavage                 0.351
18   G37A G41C  self-cleavage                 0.192
19   G17A C39A  self-cleavage                 0.201
20   U20C C63G  self-cleavage                 0.162
21    C6G G56A  self-cleavage                 0.204
22   C34U C54A  self-cleavage                 0.809
23   C45G U64C  self-cleavage                 0.836
24   G47C C57A  self-cleavage                  0.32
25   G11C U26C  self-cleavage                 0.729
26   A51U C66G  self-cleavage                 0.752
27   C12G G41A  self-cleavage                 0.353
28   G14A G65C  self-cleavage                 0.311
29    A8G G48U  self-cleavage                 0.943
30   C34G G48A  self-cleavage                 0.765
31   C29G C45A  self-cleavage                 0.402
32   G31C G50U  self-cleavage                 0.238
33    C7A G25A  self-cleavage                 0.163
34        C39A  self-cleavage                 0.903
35   C24U U62C  self-cleavage                 0.505
36    G3A A42G  self-cleavage                 0.584
37   C54A A60U  self-cleavage                 0.308
38    G2A C34U  self-cleavage                 0.106
39   C34A A40G  self-cleavage                 0.788
40   U55C A59U  self-cleavage                 0.545
41   G11A C39U  self-cleavage                 0.609
42   C39U G65A  self-cleavage                  0.56
